System: MALME-3M melanoma
Experiment: NCI-60 one-dose screen, 48 h
Conditions: 10 µM
Compounds without any hit were thinned out: in the full panel of roughly 83,000, 20% have a hit. Activity calls are given as the source filed them. Rule for the calls: active = growth percent below 10; inactive = the rest.
Outcome (select one): 1.0 = active, 0.0 = inactive

Sample answers from the record:
# compound, classification
rows = [
    ("CN(CCO)c1oc(-c2ccccc2)nc1[P+](c1ccccc1)(c1ccccc1)c1ccccc1", 1.0),
    ("N#C/C(=C\\c1ccc(N(c2ccccc2)c2ccccc2)cc1)C(N)=O", 0.0),
    ("COc1ccc(/C=C/C(=O)c2ccc(N3CCN(C)CC3)cc2)c(C(F)(F)F)c1", 0.0),
    ("COc1ccc(-c2nc(S(=O)(=O)c3ccccc3)c(S(C)(=O)=O)o2)cc1", 1.0),
    ("CN1CCc2c(sc3ncnc(N/N=C/c4cn(-c5ccccc5)nc4-c4ccc(Cl)cc4)c23)C1", 0.0),
]

Please share the test call associated with CC1(c2ccccc2)NC(=O)N(CC(=O)Nc2ccc(C(=O)/C=C/c3ccc(Cl)cc3)cc2)C1=O (stereo not drawn) .
0.0

Which outcome was entered for the compound `O=c1[nH]c2ccc(Cl)cc2cc1CSc1ccc(Nc2nccc(-c3ccc4ccccc4c3)n2)cc1` in this test?
0.0

# fetch the recorded call for CC(=O)OC[C@@]1(C)C2CC[C@]3(C)C(CC=C4C5CC(C)(C)CC[C@]5(C(=O)Nc5ccccc5)CC[C@]43C)[C@@]2(C)C[C@@H](OC(C)=O)[C@@H]1OC(C)=O (stereo partly drawn) here
0.0

---

System: RXF 393 renal
Assay: NCI-60 one-dose screen, 48 h (100 = growth as untreated, 0 = no growth, -100 = all killed)
Settings: 10 µM
This is part of a sample that, as a whole, favours compounds with a hit. Of some 83,000 tested, about 20% had one in any assay.
experimental_endpoint: growth (%)
Kindly provide the numeric value in % only, without the unit symbol.

# compound, growth, %
measured = [
    ("O=C1Nc2cc(Cl)ccc2/C1=C/c1cccc(OCc2ccc(Br)cc2F)c1", -15.1),
    ("CN1CCN(c2ccc(Nc3nc(NCCCNC(=O)c4ccc(F)cc4)c4sccc4n3)cc2)CC1", 10.8),
    ("Cc1ccc(/C=C(\\C#N)n2nnc3c(F)cccc32)cc1", -4.78),
    ("COc1ccc(-c2ccc(/C=N/NC(=O)c3[nH]c4ccc(Br)cc4c3-c3ccccc3)s2)cc1", 74.2),
    ("COc1ccc(-c2ccc(/C=N/NC(=O)c3[nH]c4ccc(Br)cc4c3-c3ccccc3)o2)cc1", 16.8),
]

Reported growth for `Cc1ccc(CSc2nc(Cl)c(C#N)c(-c3ccc(F)cc3)n2)cc1` : what is it?
70.2

// returns reported growth for input `CN1CCN(c2ccc(C(=O)/C=C/c3ccc(C#N)cc3)cc2)CC1`
63.9

If you can, please state the reported growth value of `Nc1cccnc1/C=N/NC(=S)NCCNC(=O)c1ccc(-n2nc(-c3ccccc3O)nc2-c2ccccc2O)cc1` .
-10.6

What measured growth goes with C=C1CCC2C3(C)COC(c4c(F)cccc4F)OC3CCC2(C)C1CC(O)C1=CCOC1=O (centres undefined) ?
66.1

---

Tested on: MOLT-4 leukemia
Experiment: NCI-60 one-dose screen, 48 h
Settings: 10 µM
The panel holds about 83,000 compounds, 20% with a hit somewhere; the sample as a whole holds those more often. Activity calls are given as the source filed them. The calls were made as follows: active = growth percent below 10; inactive = the rest.
# output must be one of active, inactive

# compound, classification
measured = [
    ("Clc1ccc(/C=N/Nc2ncnc3sc4c(c23)CCN(Cc2ccccc2)C4)cc1", "active"),
    ("CCN1CCN(Cc2ccc(C(=O)Nc3cccc(-c4cn(-c5ccc6oc(=O)ccc6c5)nn4)c3)cc2C(F)(F)F)CC1", "active"),
]

Check the results log: what was the call for `O=c1cc(-c2ccccc2)oc2cc(OCCCNCc3ccccc3)cc(O)c12` ?
active

Which result was noted for this compound in the test: `NS(=O)(=O)c1ccc(N=Nc2c(O)n(CC(=O)Nc3ccccc3Br)c3ccccc23)cc1`
inactive

Per the records of this test, what outcome belongs to COc1ccc(C2NC(=S)NC(C)=C2C(=O)OC(C)C)cc1OC (stereo not drawn) ?
inactive

Hi team, can someone confirm the assay call for `CC(=O)c1ccc(Nc2nc(SCCC(C)C)nc(-c3ccc(F)cc3)c2C#N)cc1` ?
inactive

Would you mind telling me which call this test gave `N#Cc1c(NC(=O)c2ccc(C(F)(F)F)c(Cl)c2)sc2c1CCC(=O)C2` ?
active

For `COc1ccc(N(C)c2cc(C#N)nc3ccccc23)cc1N` , which call appears in the assay record?
inactive

GET /call?item= `NS(=O)(=O)c1ccc(NC(=O)CSc2ccc(-c3ccccc3)nn2)c(Br)c1` returns the recorded outcome of this test.
inactive

From: PubChem BioAssay (NCI)
